Provide the recorded IC50 for the entries that follow.
biological target: UniProt:P23975; experiment: hNET uptake, Protocol B: cell based norepinephrine reuptake assay using recombinant hNET (MDCK-Net6 cells); conditions: NE uptake (Protocol B) IC50 (nM), MDCK-Net6 cells, 3H-NE 16 nM
Counter-ions that a name gives are not always drawn.
Report the value in nM with no unit label.

Quick check: IC50 of CNCCCN1c2ccc(Cl)cc2N(c2ccccc2)S1(=O)=O [Example 36] ? 11.3

Same read-out for CNCCCN1c2ccccc2N(c2cccc(OC(F)(F)F)c2)S1(=O)=O [Example 49, hydrochloride] ? 147

Same read-out for CN(C)CCCN1c2c(F)cccc2N(c2ccc(F)cc2F)S1(=O)=O [Example 80, hydrochloride] ? 448

Same read-out for CNCCCN1c2cccc(F)c2N(c2ccccc2)S1(=O)=O [Example 41] ? 2.41

Same read-out for CCNCCCN1c2ccccc2N(c2c(F)cccc2F)S1(=O)=O [Example 126, hydrochloride] ? 15

Same read-out for CNCCCN1c2cccc(F)c2N(c2ccc(F)cc2F)S1(=O)=O [Example 79, hydrochloride] ? 9

Same read-out for CNCCCCN1c2ccccc2N(c2ccc(F)c(F)c2)S1(=O)=O [Example 110] ? 39

Same read-out for CNCCCN1c2cnccc2N(c2ccccc2)S1(=O)=O [Example 25] ? 146

Same read-out for CNCCCN1c2ccc(F)cc2N(c2ccccc2)S1(=O)=O [Example 44] ? 4.26

Same read-out for CNCCCN1c2ccccc2N(c2cccc(Br)c2)S1(=O)=O [Example 53, hydrochloride] ? 24.5

Same read-out for CNCCCN1c2ccccc2N(c2ccc(F)c(F)c2)S1(=O)=O [Example 109] ? 20

Same read-out for NCCCCCN1c2ccccc2N(c2ccccc2F)S1(=O)=O [Example 65] ? 14.1

Same read-out for NCCCCCCN1c2ccccc2N(c2ccccc2F)S1(=O)=O [Example 102] ? 26

Same read-out for CNCCCCCN1c2ccccc2N(c2ccc(F)cc2F)S1(=O)=O [Example 115, hydrochloride] ? 61

Same read-out for CNCCCCN1c2ccccc2N(c2ccc(F)cc2)S1(=O)=O [Example 82, hydrochloride] ? 46

Same read-out for CNCCCN1c2ccccc2N(c2ccc(C)cc2F)S1(=O)=O [Example 108] ? 4

Same read-out for NCCCN1c2ccccc2N(c2ccc(F)cc2F)S1(=O)=O [Example 72, hydrochloride] ? 259

Same read-out for CNCCCCN1c2ccccc2N(c2ccc(F)cc2Cl)S1(=O)=O [Example 87, hydrochloride] ? 82

---

target: human norepinephrine transporter (hNET) (Homo sapiens, UniProt P23975); experiment: hNET uptake, Protocol B: cell based norepinephrine reuptake assay using recombinant hNET (MDCK-Net6 cells); settings: NE uptake (Protocol B) IC50 (nM), MDCK-Net6 cells, 3H-NE 16 nM
Sequence (P23975 whole entry): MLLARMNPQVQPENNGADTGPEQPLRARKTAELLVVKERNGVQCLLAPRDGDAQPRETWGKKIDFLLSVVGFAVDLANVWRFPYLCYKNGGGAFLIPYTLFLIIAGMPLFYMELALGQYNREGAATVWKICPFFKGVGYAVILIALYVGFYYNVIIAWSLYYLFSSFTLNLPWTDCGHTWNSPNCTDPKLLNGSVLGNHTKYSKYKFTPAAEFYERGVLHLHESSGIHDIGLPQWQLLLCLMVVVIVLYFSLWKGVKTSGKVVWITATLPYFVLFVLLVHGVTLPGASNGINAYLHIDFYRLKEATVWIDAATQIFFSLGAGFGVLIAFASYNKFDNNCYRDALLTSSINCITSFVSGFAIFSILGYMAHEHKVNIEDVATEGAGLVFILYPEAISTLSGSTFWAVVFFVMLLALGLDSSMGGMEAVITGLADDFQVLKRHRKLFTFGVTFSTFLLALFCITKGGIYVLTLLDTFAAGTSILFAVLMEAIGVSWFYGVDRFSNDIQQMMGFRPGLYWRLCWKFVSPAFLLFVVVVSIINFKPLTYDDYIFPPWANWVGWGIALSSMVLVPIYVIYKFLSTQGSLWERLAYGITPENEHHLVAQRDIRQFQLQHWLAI
Counter-ions that a name gives are not always drawn.
Provide the recorded IC50 for the entries that follow.
Report the value in nM with no unit label.

Quick check: IC50 of CNCCCCN1c2ccccc2N(c2c(F)cccc2F)S1(=O)=O [Example 83, hydrochloride] ? 2

Same read-out for CC(C)NCCCN1c2ccccc2N(c2c(F)cccc2F)S1(=O)=O [Example 127, hydrochloride] ? 148

Same read-out for CNCCCN1c2ccccc2N(c2cccc(F)c2F)S1(=O)=O [Example 46, hydrochloride] ? 4.84

Same read-out for CNCCCN1c2ccccc2N(c2ccc(F)cc2F)S1(=O)=O [Example 75, hydrochloride] ? 4.17

Same read-out for CNCCCN1c2ccccc2N(c2cccc(C(F)(F)F)c2)S1(=O)=O [Example 51, hydrochloride] ? 3170

Same read-out for CCNCCCN1c2ccccc2N(c2ccc(F)cc2F)S1(=O)=O [Example 119, hydrochloride] ? 77

Same read-out for CNCCCN1c2ccc(C)cc2N(c2ccccc2)S1(=O)=O ? 13.9

Same read-out for CNCCCN1c2ccccc2N(c2cccnc2)S1(=O)=O [Example 34, hydrochloride] ? 85
